B1: TPR t1 (parent)
chain: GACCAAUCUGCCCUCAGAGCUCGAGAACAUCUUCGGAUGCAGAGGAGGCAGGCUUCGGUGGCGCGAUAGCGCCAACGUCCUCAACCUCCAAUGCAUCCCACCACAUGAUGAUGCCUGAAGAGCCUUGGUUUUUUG

- Variants of: B1
- experiment summary: polymerase ribozyme fitness, log enrichment relative to wild type (log ratio); higher = more active; in vitro selection for triplet polymerase activity
So basically every entry gets a class from its polymerase ribozyme fitness (log ratio), ranges being interval 1: < -4; interval 2: ≥ -4 and < -2; interval 3: ≥ -2

| mutations | group label |
| --- | --- |
| A111G | interval 3 |
| U7G A66C G71U | interval 3 |
| G61U G63A | interval 1 |
| G17U C70U U78G | interval 2 |
| C12A G45U G51C G52U U59C C123G | interval 1 |
| C13U G23A | interval 1 |
| C22G G110U U125G | interval 1 |
| U59G C86U A95U C115A C123U | interval 2 |
| A18G C123U | interval 3 |
| C28U C123G | interval 3 |
| C49A A84C C99U | interval 2 |
| C11A C13G C115A | interval 1 |
| C40G G52A A118U | interval 3 |
| G63C U130A | interval 3 |
| C79G C82G U92A A121G | interval 1 |
| G48C G93U U96A A111G | interval 1 |
| C101A G117A | interval 2 |
| U92A | interval 2 |
| A2U C8U A41C C56G G77U G122A | interval 2 |
| A26U C124U | interval 2 |
| G39U U55A G71A C94G C102A G113U | interval 1 |
| A5C G17A C82A | interval 1 |
| C53A U78G C82A | interval 3 |
| C3G C13U G36U G45A C72U U125A G127U U131C | interval 2 |
| G10U C13G G45U C56A U87A C94U C124G | interval 3 |
| A100U U106C | interval 3 |
| A6C G71C G113U | interval 1 |
| A6G U14G G58A C70U | interval 3 |
| G39A G58A | interval 3 |
| U9A C49A C56U C73A | interval 3 |
| A5G C8U U54A A111U | interval 2 |
| C40G U81C | interval 3 |
| C64G C114A | interval 1 |
| G10A G19U G61U | interval 1 |
| C15G A26U G44C G117C | interval 2 |
| U30G A43U G45U G47A C49A C73A U106A A119G | interval 2 |
| U9G G71U A84G C89G U112G | interval 1 |
| A29U G47U | interval 2 |
| A66C U130C | interval 3 |
| C12G U14C C62U C85U C86U | interval 3 |
| C53U C72A U130A | interval 3 |
| C3A C8A C40G G61U A100C | interval 2 |
